# study_target: Human recombinant TNF-α (human, UniProt P01375)
# procedure_text: competitive radioreceptor assay, dose-response, 125I-TNF-α on immobilized TNF-R-IgG
Bridge positions count the residues as written; N and C are the ends. Ends that are not written are not given here.
measured_parameter: IC50 (µM)
Just the number please, in µM, no unit attached.

Consider the binder YCWSQYLCY (disulfide 2-8 (inferred)) [WP9QY] and give its measured IC50.
5
